Entries and their koff
target: T1, HLA-A*0201 loaded with the Carcinoembryonic antigen (CEA)-derived … peptide (biotin on the C-terminal biotinylation tag); assay: Biacore SPR
T1 construct: Soluble, biotinylated, immobilised on a streptavidin chip

Binder | Readout | Measured result
SEQ ID NO 67 (receptor, mutated soluble two domain ILT-2) MHLPKPTLWAEPGSVITMDQPVTLRCQGGQETQEYRLYREKKTAPWITRIPQELVKKGQFPIPSITWEHAGRYRCYYGSDTSQWSASSDPLELVVTGVYIKPTLSAQPSPVVNSGGNVTLQCDSQVAFDGFILCKEGEDEHPQCLNSQPHARGSSRAIFSVGPVSPSRRWWYRCYAYDSNSPYEWSLPSDLLELDVDGC | koff | ≤ 2 s⁻¹
SEQ ID NO 18 (receptor, mutated soluble two domain ILT-2) MAGHLPKPTLWAEPGSVITMDQPVTLRCQGGQETQEYRLYREKKTAPWITRIPQELVKKGQFPIPSITWEHAGRYRCYYGSDTSQWSASSDPLELVVTGVYIKPTLSAQPSPVVNSGGNVTLQCDSQVAFDGFILCKEGEDEHPQCLNSQPHARGSSRAIFSVGPVSPSRRWWYRCYAYMSWAPYEWSLPSDLLELDVDG | koff | ≤ 2 s⁻¹

// below: koff requested for another binder
Give koff for the following binder: SEQ ID NO 42 (receptor, mutated soluble two domain ILT-2) MHLPKPTLWAEPGSVITLQSPLTLRCQGGQETQQYRLYREKKTAPWITRIPQELVKKGQFPIPSITWEHAGRYRCYYGSDTRQWSASSDPLELVVTGVYIKPTLSAQPSPVVNSGGNVTLQCDSQVAFDGFILCKEGEDDHPQCLNSQPHARGSSRAIFSVGPVSPSRRWRYRCYAYDSNSPYEWSLPSDLLELDVDG ≤ 2 s⁻¹

Provenance of the data: patent US20100135997A1
